- measurement.target: human CPN (Homo sapiens, UniProt P15169)
- Sequence (P15169 21-458): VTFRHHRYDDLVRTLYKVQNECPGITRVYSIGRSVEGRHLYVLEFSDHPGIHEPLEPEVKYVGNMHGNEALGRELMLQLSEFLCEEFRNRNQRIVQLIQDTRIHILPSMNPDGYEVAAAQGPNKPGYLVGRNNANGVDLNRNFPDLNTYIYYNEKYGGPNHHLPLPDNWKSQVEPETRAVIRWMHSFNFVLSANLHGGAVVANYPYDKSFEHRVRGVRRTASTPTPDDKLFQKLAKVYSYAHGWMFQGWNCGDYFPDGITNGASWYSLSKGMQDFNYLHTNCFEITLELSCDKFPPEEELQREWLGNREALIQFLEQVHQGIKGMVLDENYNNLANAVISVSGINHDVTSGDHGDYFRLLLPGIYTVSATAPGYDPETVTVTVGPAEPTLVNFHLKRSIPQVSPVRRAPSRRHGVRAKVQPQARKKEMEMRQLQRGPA
- Sequence (P22792 22-545 partner): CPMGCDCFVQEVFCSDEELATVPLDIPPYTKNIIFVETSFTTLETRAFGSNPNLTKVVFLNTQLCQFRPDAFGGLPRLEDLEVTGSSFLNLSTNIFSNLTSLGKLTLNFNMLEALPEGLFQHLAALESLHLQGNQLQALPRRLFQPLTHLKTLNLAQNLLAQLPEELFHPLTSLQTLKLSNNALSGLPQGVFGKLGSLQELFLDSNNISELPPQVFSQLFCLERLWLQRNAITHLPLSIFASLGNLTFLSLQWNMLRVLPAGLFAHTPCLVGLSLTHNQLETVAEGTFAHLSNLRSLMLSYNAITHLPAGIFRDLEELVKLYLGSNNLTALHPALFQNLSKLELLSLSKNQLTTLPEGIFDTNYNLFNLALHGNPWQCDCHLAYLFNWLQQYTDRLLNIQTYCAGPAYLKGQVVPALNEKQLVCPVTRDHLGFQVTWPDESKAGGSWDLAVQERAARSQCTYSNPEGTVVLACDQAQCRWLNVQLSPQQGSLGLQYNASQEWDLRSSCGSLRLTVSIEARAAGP
- protocol.description: CPN Ki determination (TAFIa assay with human CPN substituted for TAFIa)
- Assay type: biochemical
- condition.notes: human CPN substituted for TAFIa; calculated Ki
pKi: −log10 of the molar value.
measurement.label: pKi

CCCn1cnc(C[C@@H](C(=O)O)N2CC[C@H](N)C2)c1 : < 5.00

// next item, pKi requested
# input Param readout= pKi; system= human CPN (Homo sapiens, UniProt P15169); entry= `N[C@H]1CCN([C@@H](Cc2cn(CCC3CCCCC3)cn2)C(=O)O)C1` ; returns value.
# output < 5.00

----------
- measurement.target: TAFIa (Homo sapiens, UniProt Q96IY4)
- Sequence (Q96IY4 115-423): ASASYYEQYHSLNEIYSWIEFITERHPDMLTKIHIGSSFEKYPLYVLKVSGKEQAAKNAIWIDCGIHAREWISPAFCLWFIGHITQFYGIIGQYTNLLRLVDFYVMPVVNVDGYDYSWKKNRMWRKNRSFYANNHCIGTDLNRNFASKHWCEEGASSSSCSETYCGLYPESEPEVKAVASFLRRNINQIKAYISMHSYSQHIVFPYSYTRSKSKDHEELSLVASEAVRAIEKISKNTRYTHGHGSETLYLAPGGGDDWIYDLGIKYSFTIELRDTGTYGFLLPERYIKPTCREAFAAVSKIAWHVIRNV
- protocol.description: Assay for TAFIa inhibition (Ki determination, FAAL substrate hydrolysis)
- condition.notes: calculated from IC50 using the Cheng-Prusoff equation, activated human TAFI, 24° C.
- Protocol: The compounds of the present invention may be tested using the following assay, which is based on that disclosed in Boffa et al., J. Biol. Chem. 1998, 273, 2127. The compounds are incubated with activated TAFI and a standard substrate for TAFIa, the rate of hydrolysis of the substrate is determined and compared to the rate of hydrolysis in the absence of the compounds, and the amount of inhibition expressed in terms of Ki. […]
pKi: −log10 of the molar value.
measurement.label: pKi

Answered examples (2):
N[C@H]1CCN([C@@H](Cc2cn(-c3ccccc3)cn2)C(=O)O)C1 : 8.10
N[C@H]1CCN([C@@H](Cc2cn(CCC3CCCCC3)cn2)C(=O)O)C1 : 8.15

I = N[C@H]1CCN([C@@H](Cc2cn(CCc3ccccc3)cn2)C(=O)O)C1
II = N[C@H]1CCN([C@@H](Cc2c[nH]cn2)C(=O)O)C1
III = CCCn1cnc(C[C@@H](C(=O)O)N2CC[C@H](N)C2)c1
# input Order the 3 compounds from highest to lowest pKi. # the answer lists labels in the order requested
# output I, III, II
(I: 8.00, III: 7.66, II: 7.22)

Reference source for all entries: patent US6919457B2
